- assayMethodText: Molar enthalpy of transition or fusion
- studyConditions: Crystal; DSC
attributeMeasured: Molar enthalpy of transition or fusion

As a guide, the following entries are already answered.
>>> recordedresult("Cc1ccc(NC2=NCCC3(CCCCC3)S2)cc1Cl")
"7.93 kcal/mol"
>>> recordedresult("c1ccc(NC2=NCCC3(CCCCC3)S2)cc1 [N-phenyl-1-thia-3-azaspiro[5.5]undec-2-en-2-amine]")
"5.16 kcal/mol"

Recorded result, Brc1ccc(NC2=NCCC3(CCCCC3)S2)cc1 [N-(4-bromophenyl)-1-thia-3-azaspiro[5.5]undec-2-en-2-amine] , Molar enthalpy of transition or fusion: 10.6 kcal/mol

* * *

Measured Molar enthalpy of transition or fusion, listed per entry.
- assayMethodText: Molar enthalpy of transition or fusion
- studyConditions: Crystal; DSC
Only the number, expressed in kcal/mol, is required.

// below: answered molecules
>>> recordedresult("CC(=O)c1ccc(NC2=NCCC3(CCCCC3)S2)cc1")
7.77
>>> recordedresult("COc1ccc(NC2=NCCC3(CCCCC3)S2)cc1 [N-(4-methoxyphenyl)-1-thia-3-azaspiro[5.5]undec-2-en-2-amine]")
7
>>> recordedresult("Clc1ccc(NC2=NCCC3(CCCCC3)S2)cc1 [N-(4-chlorophenyl)-1-thia-3-azaspiro[5.5]undec-2-en-2-amine]")
6.67
>>> recordedresult("FC(F)(F)c1ccc(NC2=NCCC3(CCCCC3)S2)cc1")
7.86

Looking up CCc1ccc(NC2=NCCC3(CCCCC3)S2)cc1 [N-(4-ethylphenyl)-1-thia-3-azaspiro[5.5]undec-2-en-2-amine] , I see its Molar enthalpy of transition or fusion listed as 10.2

Field Molar enthalpy of transition or fusion (entry `CC(C)c1ccc(NC2=NCCC3(CCCCC3)S2)cc1` ) reads 6.98

Just so you know, measured Molar enthalpy of transition or fusion for O=C(NC1=NCCC2(CCCCC2)S1)c1ccccc1 [N-(1-thia-3-azaspiro[5.5]undec-2-en-2-yl)benzamide] came out at 6.67

Briefly, Molar enthalpy of transition or fusion measured for Cc1ccc(NC2=NCCC3(CCCCC3)S2)cc1 [N-(4-methylphenyl)-1-thia-3-azaspiro[5.5]undec-2-en-2-amine] : 10

* * *

- studyConditions: Crystal; DTA
attributeMeasured: Normal melting temperature (°C)
Hi! Could you send only the number? It should be in °C, unit omitted.

>>> recordedresult("FC(F)(F)c1ccc(NC2=NCCC3(CCCCC3)S2)cc1")
149.7
>>> recordedresult("Clc1ccc(NC2=NCCC3(CCCCC3)S2)cc1 [N-(4-chlorophenyl)-1-thia-3-azaspiro[5.5]undec-2-en-2-amine]")
162.6
>>> recordedresult("Cc1ccc(NC2=NCCC3(CCCCC3)S2)cc1 [N-(4-methylphenyl)-1-thia-3-azaspiro[5.5]undec-2-en-2-amine]")
108.2
>>> recordedresult("Brc1ccc(NC2=NCCC3(CCCCC3)S2)cc1 [N-(4-bromophenyl)-1-thia-3-azaspiro[5.5]undec-2-en-2-amine]")
175.2
>>> recordedresult("CC(=O)c1ccc(NC2=NCCC3(CCCCC3)S2)cc1")
163.5

Briefly, Normal melting temperature measured for O=C(NC1=NCCC2(CCCCC2)S1)c1ccccc1 [N-(1-thia-3-azaspiro[5.5]undec-2-en-2-yl)benzamide] : 130.2

Value of measured Normal melting temperature for the entry c1ccc(NC2=NCCC3(CCCCC3)S2)cc1 [N-phenyl-1-thia-3-azaspiro[5.5]undec-2-en-2-amine] : 113.4

// CCc1ccc(NC2=NCCC3(CCCCC3)S2)cc1 [N-(4-ethylphenyl)-1-thia-3-azaspiro[5.5]undec-2-en-2-amine] : Normal melting temperature value = 139.4

Entry under test: `Cc1ccc(NC2=NCCC3(CCCCC3)S2)cc1Cl` . Its Normal melting temperature was 149.2

Lab book: Normal melting temperature of COc1ccc(NC2=NCCC3(CCCCC3)S2)cc1 [N-(4-methoxyphenyl)-1-thia-3-azaspiro[5.5]undec-2-en-2-amine] noted as 115.4

Kindly note the recorded Normal melting temperature for `CC(C)c1ccc(NC2=NCCC3(CCCCC3)S2)cc1` , which is 139.6
